Target: T1, RSV-A F (RSV A)
T1 construct: also called RSV F A
Assay: BLI
pKd: −log10 of the molar value.
// reported pKd per item
RECORDED ENDPOINT: pKd

BINDER: MPK201-v4.1 (antibody, V domains shown) VH: QVQLVQSGAEVKKPGESLKISCQGSGYSFISYWIGWVRQKPGKGLEWMGIIYPFDSETKYSPSFQGHVTFSADKSINTAYVQWSSLRASDTAMYYCARFTFGLAVTTADVSGEGQAFEIWGQGTMVTVSS VL: EIVMMQSPATLSVSPGERATLSCRASQSVAGNLAWYQQRPGQAPRLLVYGASTRASGVPARFSGSGSETEFTLTISSLQSEDFAVYYCHHYSDWPQAFGQGTRLDIK
RECORDED ENDPOINT: pKd
DATA VALUE: 9.53
//
BINDER: MPK65-v2-v1.2 (antibody, V domains shown) VH: QVPLVQSGAEVKKPGESLKISCKGSGYSFINYWIGWVRQMPGKGLEWMGVIYPFDSDTKYSPSFQGHVTISADKSSNTAYVQWSSLKASDTAMYYCARFTFGIAVVTDDVSGEGQAFEIWGQGTMVTVSS VL: QIVMMQSPATLSVSPGERATLSCRASQSVAGNLAWYQQRPGQAPRLLIYGASTRATGVPARFSGSGSETEFTLTISSLQSEDFAVYYCHQYSNLPQAFGQGTRLDIK
RECORDED ENDPOINT: pKd
DATA VALUE: 9.69
